Target: Protein deacetylase HDAC6 (Homo sapiens) (UniProt Q9UBN7)
Details: at 10 µM
Out of some 5,600 compounds screened, about 390 (7%) showed an effect of 50% or more. Only a selection was taken, and strong results are over-represented in it overall.
outcome.measure: inhibition (%)
Numbers only, in %.

Working through the 4 molecules below one at a time, give inhibition for each.
1. Nc1ccc2ncnc(NCCc3ccc(Oc4ccccc4)cc3)c2c1
2. COc1c(OCCCN2CCOCC2)ccc2c1N=C(NC(=O)c1cnc(N)nc1)N1CCN=C21
3. NC(=O)C[C@H](N)C(=O)O
4. COc1ccc(C(=O)Nc2sc3c(c2C(N)=O)CCCC3)cc1OC

Result string:
1. 58
2. 8.29
3. 16.2
4. 31.6

---

Please go through the items and note down their inhibition.
Target: Protein deacetylase HDAC6 (Homo sapiens)
Sequence (whole entry): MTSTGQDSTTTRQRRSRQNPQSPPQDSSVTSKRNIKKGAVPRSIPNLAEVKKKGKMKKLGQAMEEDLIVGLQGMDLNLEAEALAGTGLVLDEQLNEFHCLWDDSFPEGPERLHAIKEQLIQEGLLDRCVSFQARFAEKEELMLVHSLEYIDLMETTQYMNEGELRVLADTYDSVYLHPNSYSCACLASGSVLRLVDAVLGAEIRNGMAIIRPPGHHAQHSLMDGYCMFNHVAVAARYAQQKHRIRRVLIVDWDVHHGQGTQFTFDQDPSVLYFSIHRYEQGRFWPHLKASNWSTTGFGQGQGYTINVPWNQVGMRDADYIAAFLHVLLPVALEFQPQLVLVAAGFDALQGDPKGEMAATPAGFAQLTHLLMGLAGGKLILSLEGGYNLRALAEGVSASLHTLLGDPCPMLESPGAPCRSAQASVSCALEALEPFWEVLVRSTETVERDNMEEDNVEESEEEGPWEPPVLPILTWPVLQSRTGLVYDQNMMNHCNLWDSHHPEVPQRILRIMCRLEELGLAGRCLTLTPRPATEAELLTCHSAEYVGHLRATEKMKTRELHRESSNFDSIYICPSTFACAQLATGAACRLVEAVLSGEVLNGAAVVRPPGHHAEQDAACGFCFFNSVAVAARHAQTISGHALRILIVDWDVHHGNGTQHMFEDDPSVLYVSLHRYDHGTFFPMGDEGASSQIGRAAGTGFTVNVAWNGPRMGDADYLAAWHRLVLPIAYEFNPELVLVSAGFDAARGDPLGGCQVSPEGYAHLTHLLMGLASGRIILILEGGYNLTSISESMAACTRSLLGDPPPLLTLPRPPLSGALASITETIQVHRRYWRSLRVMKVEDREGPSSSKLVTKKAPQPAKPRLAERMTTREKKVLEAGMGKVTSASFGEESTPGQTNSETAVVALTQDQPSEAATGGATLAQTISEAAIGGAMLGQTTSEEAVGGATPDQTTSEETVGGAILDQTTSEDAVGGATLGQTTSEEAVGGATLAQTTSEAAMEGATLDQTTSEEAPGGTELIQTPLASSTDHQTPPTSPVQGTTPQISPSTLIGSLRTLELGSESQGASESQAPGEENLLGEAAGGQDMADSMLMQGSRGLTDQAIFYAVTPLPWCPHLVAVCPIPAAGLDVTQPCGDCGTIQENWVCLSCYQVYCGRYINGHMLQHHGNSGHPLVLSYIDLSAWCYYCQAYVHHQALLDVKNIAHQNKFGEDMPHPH
Details: at 10 µM
The campaign covered roughly 5,600 compounds. About 390 (7%) showed an effect of 50% or more. This excerpt belongs to a sample that is enriched for strong results.
Answers are plain numbers, in %.

>  <compound>
O=C(Nc1ccc([N+](=O)[O-])cc1Cl)c1cc(Cl)ccc1O

>  <inhibition (%)>
93.1

$$$$
>  <compound>
CNC(=N)NC(=O)Nc1c(C)cccc1C

>  <inhibition (%)>
27.8

$$$$
>  <compound>
Cc1cc(O)c(C(C)C)cc1Cl

>  <inhibition (%)>
35.2

$$$$
>  <compound>
O=C1NCCc2[nH]c(-c3ccncc3)cc21

>  <inhibition (%)>
-2.78

$$$$
>  <compound>
CC[C@@H]1CN2C(=O)N(C)c3nc(-c4ccccc4)[nH]c3C2=N1

>  <inhibition (%)>
-3.85

$$$$
>  <compound>
O=C(Nc1ccccc1)c1cc([N+](=O)[O-])ccc1Cl

>  <inhibition (%)>
-6.48

$$$$

For each listed entry, give its inhibition.
1. O=C(Nc1ccncc1)c1cc([N+](=O)[O-])ccc1Cl
2. CC(C)(C)c1ccc(C(=O)CCCN2CCC(OC(c3ccccc3)c3ccccc3)CC2)cc1

Result string:
1. 8.83
2. 25.3

Dear colleague, could you send me inhibition for each of the items below? Thanks.
1. O=C(NC1Cc2ccccc2N(C[C@@H](O)CO)C1=O)c1cc2cc(Cl)sc2[nH]1 (stereo partly specified)
2. NS(=O)(=O)c1cc(C(=O)O)cc(N2CCCC2)c1Oc1ccccc1
3. Cc1cc(-c2nncc3c(C(C)(C)C)c(OCc4ncnn4C)nn23)no1

Result string:
1: -2.31; 2: 1.91; 3: -0.39

---

Target: Protein deacetylase HDAC6 (Homo sapiens)
Conditions: at 10 µM
In all, about 5,600 compounds went through this assay and about 390 (7%) showed an effect of 50% or more. The sample as a whole holds a higher share of strong results than the screen did.
Binary call on inhibition: condition met from 50% upward, condition not met beneath that.

>  <molecule>
C/C=C\C1=C(C(=O)O)N2C(=O)C(NC(=O)C(N)c3ccc(O)cc3)C2SC1 (stereo not given)

>  <answer.label>
condition not met

$$$$
>  <molecule>
COc1ccccc1OCC(O)COC(N)=O (stereo not given)

>  <answer.label>
condition met

$$$$
>  <molecule>
COc1cc2c(cc1OC)CN(CCc1ccc(NC(=O)c3cccc4c(=O)c5cccc(OC)c5[nH]c34)cc1)CC2

>  <answer.label>
condition met

$$$$
>  <molecule>
NC(=O)OCC(O)COc1ccc(Cl)cc1 (stereo not given)

>  <answer.label>
condition not met

$$$$
>  <molecule>
COc1ccccc1S(=O)(=O)Nc1ccc2c(c1)CN(C)C(=O)N2

>  <answer.label>
condition not met

$$$$
>  <molecule>
CC(C(=O)O)c1ccc(C(=O)c2ccccc2)s1 (stereo not given)

>  <answer.label>
condition not met

$$$$
>  <molecule>
C[C@H]1CN(C[C@H](Cc2ccccc2)C(=O)NCC(=O)O)CC[C@@]1(C)c1cccc(O)c1

>  <answer.label>
condition met

$$$$
>  <molecule>
COc1cccc([C@H](O)C2CCN(CCc3ccc(F)cc3)CC2)c1OC

>  <answer.label>
condition not met

$$$$

Query string: Quick check: does CC(C)C[C@H](NC(=O)[C@H](CCc1ccccc1)NC(=O)CN1CCOCC1)C(=O)N[C@@H](Cc1ccccc1)C(=O)N[C@@H](CC(C)C)C(=O)[C@@]1(C)CO1 have inhibition greater than or equal to 50%?
Result string: condition not met

Query string: Decide: inhibition of Cc1cc(-c2nc(C(=O)Nc3cn(C4CCOCC4)nc3C(N)=O)co2)ccn1 >= 50%?
Result string: condition not met

---

Molecular target: Protein deacetylase HDAC6 (Homo sapiens) (UniProt Q9UBN7)
Sequence (whole entry): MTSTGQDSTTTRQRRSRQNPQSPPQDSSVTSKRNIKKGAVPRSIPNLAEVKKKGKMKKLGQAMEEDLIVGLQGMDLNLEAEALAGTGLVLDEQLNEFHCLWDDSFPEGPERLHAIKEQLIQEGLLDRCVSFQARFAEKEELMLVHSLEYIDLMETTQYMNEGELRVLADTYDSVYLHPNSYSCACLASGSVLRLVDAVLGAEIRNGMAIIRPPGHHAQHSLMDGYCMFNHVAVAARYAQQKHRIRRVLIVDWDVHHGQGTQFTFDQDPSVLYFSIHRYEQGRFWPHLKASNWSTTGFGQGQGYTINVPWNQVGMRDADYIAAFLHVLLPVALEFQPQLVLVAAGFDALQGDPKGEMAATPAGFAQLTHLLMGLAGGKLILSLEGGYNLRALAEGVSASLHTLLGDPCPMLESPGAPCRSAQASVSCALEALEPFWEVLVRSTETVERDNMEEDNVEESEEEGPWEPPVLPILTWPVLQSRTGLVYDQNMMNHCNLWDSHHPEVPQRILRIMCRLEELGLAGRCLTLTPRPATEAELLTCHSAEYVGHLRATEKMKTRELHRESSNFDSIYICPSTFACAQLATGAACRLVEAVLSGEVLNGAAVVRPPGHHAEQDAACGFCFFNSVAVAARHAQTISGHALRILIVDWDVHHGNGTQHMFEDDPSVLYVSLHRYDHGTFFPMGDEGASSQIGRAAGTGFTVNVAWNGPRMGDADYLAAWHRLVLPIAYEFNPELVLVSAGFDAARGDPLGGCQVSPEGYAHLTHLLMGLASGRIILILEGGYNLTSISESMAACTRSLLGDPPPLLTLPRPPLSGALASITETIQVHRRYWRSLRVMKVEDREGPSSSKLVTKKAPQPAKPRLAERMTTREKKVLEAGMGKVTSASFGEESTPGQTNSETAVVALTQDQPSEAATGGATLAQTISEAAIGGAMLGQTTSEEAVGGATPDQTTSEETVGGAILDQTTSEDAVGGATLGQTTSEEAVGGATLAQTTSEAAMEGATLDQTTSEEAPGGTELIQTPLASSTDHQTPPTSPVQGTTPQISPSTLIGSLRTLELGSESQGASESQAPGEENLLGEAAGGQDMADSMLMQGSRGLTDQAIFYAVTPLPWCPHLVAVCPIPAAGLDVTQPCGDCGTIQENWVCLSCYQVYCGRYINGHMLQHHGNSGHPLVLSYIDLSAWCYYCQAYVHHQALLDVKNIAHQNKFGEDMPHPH
Conditions: at 10 µM
Screen size: about 5,600 compounds; about 390 (7%) showed an effect of 50% or more. Many of the other results were omitted from the sample, so strong results are more common in it than they were.
For each entry below, report its inhibition value.
Give bare numbers, in %.

Here are 6 compounds together with their reported answers.
>  <compound>
O=C(O)c1cc([N+](=O)[O-])ccc1NCCCc1ccccc1

>  <outcome.measure>
inhibition

>  <unit.string>
%

>  <result.value>
109

$$$$
>  <compound>
CCc1cccc(CC)c1NC(=O)c1nn(C)c2c1CCc1cnc(Nc3ccc(C(=O)NC4CCN(C)CC4)cc3OC(F)(F)F)nc1-2

>  <outcome.measure>
inhibition

>  <unit.string>
%

>  <result.value>
-2.89

$$$$
>  <compound>
Cc1cnc(-c2cnc(NCCNc3ccc(C#N)cn3)nc2-c2ccc(Cl)cc2Cl)[nH]1

>  <outcome.measure>
inhibition

>  <unit.string>
%

>  <result.value>
3.11

$$$$
>  <compound>
Cc1noc(NS(=O)(=O)c2cccc3c(N(C)C)cccc23)c1C

>  <outcome.measure>
inhibition

>  <unit.string>
%

>  <result.value>
29.9

$$$$
>  <compound>
CC(C)NC(=O)c1ccc(C#Cc2ccncc2)cn1

>  <outcome.measure>
inhibition

>  <unit.string>
%

>  <result.value>
-5.33

$$$$
>  <compound>
CNC(=O)c1ccc2cc(C3(O)CCn4cncc43)ccc2c1 (stereo not given)

>  <outcome.measure>
inhibition

>  <unit.string>
%

>  <result.value>
25.9

$$$$

Working through the 4 compounds below one at a time, give inhibition for each.
1. Cc1cc(Cl)ccc1OCCCC(=O)NO
2. Cc1nnc(C(C)C)n1[C@H]1C[C@H]2CC[C@@H](C1)N2CC[C@H](NC(=O)C1CCC(F)(F)CC1)c1ccccc1
3. Cc1ccc([C@@H]2O[C@H](CO)[C@@H](O)[C@H](O)[C@H]2O)cc1Cc1ccc(-c2ccc(F)cc2)s1
4. C=C1/C(=C\C=C2/CCC[C@]3(C)[C@@H]([C@H](C)CC[C@@H](O)C(C)C)CC[C@@H]23)C[C@@H](O)C[C@@H]1O

Result string:
1. 98.5
2. 25
3. -5.59
4. 24.3
